assay: chemical genetic growth profiling, strain panel (AID 1159580);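 also: tested at 20 µM; growth read once vehicle control cultures reached saturation at 30 °C; 1 = growth at the plate median or of vehicle wells; lower values mean less growth of the strain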; conditions: S. cerevisiae deletion strains, growth OD, locus YJL115W, strain asf1, active compounds read low
About 2,000 (36%) of roughly 5,500 compounds were called active. Not shown: some 18% with an inconclusive outcome. Some of the results follow.
A collection of compounds and their measured normalized growth
observation.type: normalized growth

1) CCOc1cccc(C(=O)c2ccc(O)c(O)c2O)c1
0.971
2) Cc1ccc(N(CC2=NCCN2)c2cccc(O)c2)cc1
1.03
3) Cc1cc(C(C)(C)C)c(O)c(C)c1CC1=NCCN1
1
4) O=C(O)[C@H](O)[C@@](O)(Cc1ccc(O)cc1)C(=O)O
0.997
5) Cc1cc(C(C)(C)C)cc(C)c1CC1=NCCN1
0.985
6) CCCCc1nc(Cl)c(CO)n1Cc1ccc(-c2ccccc2-c2nn[nH]n2)cc1
0.994
7) CCc1cccc2c3c([nH]c12)C(CC)(CC(=O)O)OCC3 (configuration not stated)
0.98

###

experiment: chemical genetic growth profiling, strain panel (AID 1159580);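 also: tested at 20 µM; growth read once vehicle control cultures reached saturation at 30 °C; 1 = growth at the plate median or of vehicle wells; lower values mean less growth of the strain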; conditions: S. cerevisiae deletion strains, growth OD, locus YLR418C, strain cdc73, active compounds read low
About 2,000 (36%) of roughly 5,500 compounds were called active. Not shown: some 18% with an inconclusive outcome. The list shows a part of the results.
Let's look at some molecules and their measured normalized growth.
observation.type: normalized growth

1. CC1=CC(=O)C2=C(C)CC(O)C3C(C)C(=O)OC3C12 (stereo not given)
1.01
2. CC(=O)Oc1cc2c(c(C)c1OC(C)=O)CC1OC13C2(C)CCC1(C)C2CC(C)(C(=O)O)CCC2(C)CCC13C (stereo not given)
1
3. COc1ccc2c(c1OC)OC[C@@H](c1ccc(OC)c(OC)c1OC)C2
0.988
4. COc1cccc(O)c1O
1.01
5. CC(=O)OCC(=O)[C@@]12OC3(CCCC3)O[C@@H]1CC1C3CCC4=CC(=O)C=C[C@]4(C)[C@@]3(F)[C@@H](O)C[C@@]12C (stereo not given in full)
0.944
6. CCOC([O-])=Nc1c[n+](N2CCOCC2)no1
0.993
7. NC[C@H]1O[C@H](O[C@H]2C(O[C@@H]3O[C@H](CO)[C@@H](O)[C@H]3O)[C@@H](O)[C@H](N)C[C@@H]2N)[C@H](N)[C@@H](O)[C@@H]1O (stereo not given in full)
0.975
8. NCC1OC(OC2C(CO)OC(OC3C(O)C(N)CC(N)C3OC3OC(CO)C(O)CC3N)C2O)C(N)C(O)C1OC1OC(CO)C(O)C(O)C1O (stereo not given)
1
9. NC(=O)NO
0.97
10. NC[C@H]1O[C@H](O[C@H]2[C@H](O)[C@@H](O[C@H]3O[C@H](CO)[C@@H](O)[C@H](N)[C@H]3O)[C@H](N)C[C@@H]2N)[C@H](N)C[C@@H]1O
0.986

###

assay: chemical genetic growth profiling, strain panel (AID 1159580);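 also: tested at 20 µM; growth read once vehicle control cultures reached saturation at 30 °C; 1 = growth at the plate median or of vehicle wells; lower values mean less growth of the strain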; details: S. cerevisiae deletion strains, growth OD, locus YOR001W, strain rrp6, active compounds read low
The whole screen tested about 5,500 compounds, of which about 2,000 (36%) were called active. Inconclusive results (about 18%) are left out. The list shows a part of the results.
Item-by-item account of normalized growth
observation.type: normalized growth

1. COc1cc(/C=C/C(=O)N2CCC=CC2=O)cc(OC)c1OC
0.945
2. CC(=O)O[C@H]1CC[C@]2(C)C3CC(=O)[C@]4(C)C(C(C)=O)=CCC4C3CC[C@H]2C1 (stereo partly specified)
0.995
3. CN1C(=O)CCS(=O)(=O)C1c1ccc(Cl)cc1 (stereo unspecified)
0.94
4. CC(=O)O[C@@H]1CC[C@]2(C)C3CC[C@]4(C)C(=O)CCC4C3CC[C@H]2C1 (stereo partly specified)
0.891
5. COc1ccc(C2C(=O)c3ccccc3C2=O)cc1
1.02
6. NC1C[C@H]1c1ccccc1 (stereo partly specified)
1.02
7. CC(=O)OC1CCC2(C)C3CC(=O)C4(C)C(CC5OC6(CCC(C)CO6)[C@@H](C)C54)C3CC[C@H]2C1 (stereo partly specified)
1.03
8. CN1CCN(CC(=O)N2c3ccccc3C(=O)Nc3cccnc32)CC1
1.02
9. O=C1c2ccccc2C(=O)C1c1ccccc1
1.01
10. COc1cc2c(cc1O)CCNC2C (stereo unspecified)
0.958
11. CC(=O)O[C@H]1CC[C@]2(C)C3CC[C@@]4(C)C(CC5O[C@@]6(CCC(C)CO6)[C@@H](C)C54)C3CC[C@@H]2C1 (stereo partly specified)
1.01
